# credit: patent US10463660B2

assay_overview: Oral PK profiles of conjugated oxymorphone in rats (released oxymorphone in plasma by LC-MS/MS)
Format: in vivo, Sprague-Dawley rats
conditions_used: 2 mg/kg oxymorphone equivalent, relative to the OM control
quantity_measured: %-Tmax (%)
Output spec: scalar in %, unitless text.

Below are worked cases with known answers.
INSERT INTO results (compound, quantity_measured, result_value) VALUES
  ('CC(C(=O)Oc1ccc2c3c1O[C@H]1C(=O)CC[C@@]4(O)[C@@H](C2)N(C)CC[C@]314)c1cccc(Oc2ccccc2)c1 (stereo partly shown)', '%-Tmax', 100),
  ('CC(=O)Oc1ccccc1C(=O)Oc1ccc2c3c1OC1C(=O)CCC4(O)C(C2)N(C)CCC314 (stereo not shown)', '%-Tmax', 25),
  ('COc1cc(C(=O)Oc2ccc3c4c2O[C@H]2C(=O)CC[C@@]5(O)[C@@H](C3)N(C)CC[C@]425)ccc1O [3-Vanillate-OM]', '%-Tmax', 46);

// next entry
For the compound CN1CC[C@]23c4c5ccc(O)c4O[C@H]2C(OC(=O)c2ccccc2)=CC[C@@]3(O)[C@H]1C5 [Conjugate 6-Bz-OM] , give its measured %-Tmax value.
129

----------
assay_overview: Oral PK profiles of conjugated oxymorphone in rats (released oxymorphone in plasma by LC-MS/MS)
Type: in vivo, Sprague-Dawley rats
conditions_used: conjugate equivalent to 2 mg/kg freebase oxymorphone, released oxymorphone in plasma
quantity_measured: Tmax (min)
Output spec: scalar in min, unitless text.

INSERT INTO results (compound, result_value) VALUES
  ('CN1CC[C@]23c4c5ccc(OC(=O)/C=C/c6ccccc6)c4O[C@H]2C(OC(=O)/C=C/c2ccccc2)=CC[C@@]3(O)[C@H]1C5 [3,6-(Cinnamate)2-OM]', 45);

For the compound CN1CC[C@]23c4c5ccc(OC(=O)c6cc(-c7ccc(F)cc7F)ccc6O)c4O[C@H]2C(=O)CC[C@@]3(O)[C@H]1C5 , give its measured Tmax value.
51

For the compound CN1CC[C@]23c4c5ccc(OC(=O)c6ccccc6O)c4O[C@H]2C(=O)CC[C@@]3(O)[C@H]1C5 , give its measured Tmax value.
39

----------
assay_overview: Oral PK profiles of conjugated oxymorphone in rats (released oxymorphone in plasma by LC-MS/MS)
Format: in vivo, Sprague-Dawley rats
conditions_used: conjugate equivalent to 2 mg/kg freebase oxymorphone, released oxymorphone in plasma
Below, each entry is listed alongside its reported Tmax.
Output spec: scalar in min, unitless text.

INSERT INTO results (compound, quantity_measured, result_value) VALUES
  ('CC(C(=O)OC1=CCC2(O)C3Cc4ccc(O)c5c4C2(CCN3C)C1O5)c1cccc(C(=O)c2ccccc2)c1 (stereo not drawn)', 'Tmax', 39),
  ('CN1CC[C@]23c4c5ccc(O)c4O[C@H]2C(OC(=O)/C=C/c2ccccc2)=CC[C@@]3(O)[C@H]1C5 [6-Cinnamate-OM]', 'Tmax', 93),
  ('CN1CC[C@]23c4c5ccc(OC(=O)/C=C/c6ccccc6)c4O[C@H]2C(=O)CC[C@@]3(O)[C@H]1C5 [3-Cinnamate-OM]', 'Tmax', 90),
  ('CC(=O)Oc1ccccc1C(=O)Oc1ccc2c3c1OC1C(=O)CCC4(O)C(C2)N(C)CCC314 (stereo not drawn)', 'Tmax', 15),
  ('COc1cc(C(=O)Oc2ccc3c4c2O[C@H]2C(=O)CC[C@@]5(O)[C@@H](C3)N(C)CC[C@]425)ccc1O [3-Vanillate-OM]', 'Tmax', 48),
  ('COc1ccc(C(=O)OC2=CC[C@@]3(O)[C@H]4Cc5ccc(O)c6c5[C@@]3(CCN4C)[C@H]2O6)cc1', 'Tmax', 15),
  ('COc1cc(C(=O)OC2=CC[C@@]3(O)[C@H]4Cc5ccc(O)c6c5[C@@]3(CCN4C)[C@H]2O6)ccc1O [6-Vanillate-OM]', 'Tmax', 102),
  ('CN1CC[C@]23c4c5ccc(O)c4O[C@H]2C(OC(=O)c2cccc(N)c2)=CC[C@@]3(O)[C@H]1C5', 'Tmax', 114);

// next entry
For the compound CN1CC[C@]23c4c5ccc(O)c4O[C@H]2C(OC(=O)c2cc(-c4ccc(F)cc4F)ccc2O)=CC[C@@]3(O)[C@H]1C5 , give its measured Tmax value.
15
